Test system: HCT-15 colon
Experiment: NCI-60 one-dose screen, 48 h (100 = growth as untreated, 0 = no growth, -100 = all killed)
Settings: 10 µM unless noted
Compounds without any hit were thinned out: in the full panel of roughly 83,000, 20% have a hit.
measure: growth (%)
Give the number; % is assumed, so skip it.

Example entries and their recorded answers appear below.
O=C(O)c1cccc2c1Cc1cc([N+](=O)[O-])ccc1-2	106
C=C1C(=O)O[C@H]2[C@H]1CC/C(COC(=O)NCCc1c[nH]c3ccccc13)=C\CC[C@@]1(C)O[C@@H]21	-9.58
C[N+](C)(CCCCCC[N+](C)(C)C1c2ccccc2-c2ccccc21)C1c2ccccc2-c2ccccc21	105
CC1(C)C(=O)/C(=C\c2ccccn2)C[C@]2(C)[C@H]3CC[C@@H]4[C@@H](C(=O)/C=C/c5ccccn5)CC[C@@]4(C)[C@]3(C)CC[C@@H]12	-31
CCN1CCN(C(=O)[C@]23CCC(C)(C)C[C@H]2C2=CC[C@@H]4[C@@]5(C)CC/C(=N/O)C(C)(C)[C@@H]5CC[C@@]4(C)[C@]2(C)CC3)CC1	15.4
Cc1ccc(-c2nc([P+](c3ccccc3)(c3ccccc3)c3ccccc3)c(N3C[C@H]4C[C@H](C3)c3cccc(=O)n3C4)o2)cc1	86.8

Summary for this compound, Nc1c(C(=O)Nc2c(Cl)cccc2Cl)sc2nc3c(cc12)C(=O)CCC3 : growth is 35.5
